Biological target: rat I7 odorant receptor (Rattus norvegicus)
Construct: expressed in transfected cells; host or cells: rat (Sprague-Dawley) olfactory sensory neurons infected in vivo with recombinant adenovirus AdexCAG-I7-IRES-GFP
Sequence (P23270 whole entry): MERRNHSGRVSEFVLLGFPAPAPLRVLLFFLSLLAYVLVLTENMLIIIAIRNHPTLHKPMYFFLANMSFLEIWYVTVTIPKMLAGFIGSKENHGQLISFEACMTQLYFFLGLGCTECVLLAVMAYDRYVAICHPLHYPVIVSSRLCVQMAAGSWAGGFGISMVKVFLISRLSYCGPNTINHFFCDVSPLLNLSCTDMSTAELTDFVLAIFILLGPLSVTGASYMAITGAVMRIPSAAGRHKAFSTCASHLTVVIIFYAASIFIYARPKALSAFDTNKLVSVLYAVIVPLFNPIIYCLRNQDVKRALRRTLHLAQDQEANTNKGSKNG
Assay: Electro-olfactogram (EOG) recording from AdexCAG-I7-IRES-GFP infected rat olfactory epithelium
Type: cell-based
Conditions: responses normalized to amyl acetate; panel of 74 odorants
observation_type: change of EOG odorant response in I7 virus infected vs uninfected animals

* CCCCCCCCCCC=O [undecylic aldehyde] | not
* CCCCCC=O [hexaldehyde] | not
